Each entry below lists one item and its recorded IC50 value.
- TEST_TARGET: UniProt Q9P2K8
- Sequence (Q9P2K8 whole entry): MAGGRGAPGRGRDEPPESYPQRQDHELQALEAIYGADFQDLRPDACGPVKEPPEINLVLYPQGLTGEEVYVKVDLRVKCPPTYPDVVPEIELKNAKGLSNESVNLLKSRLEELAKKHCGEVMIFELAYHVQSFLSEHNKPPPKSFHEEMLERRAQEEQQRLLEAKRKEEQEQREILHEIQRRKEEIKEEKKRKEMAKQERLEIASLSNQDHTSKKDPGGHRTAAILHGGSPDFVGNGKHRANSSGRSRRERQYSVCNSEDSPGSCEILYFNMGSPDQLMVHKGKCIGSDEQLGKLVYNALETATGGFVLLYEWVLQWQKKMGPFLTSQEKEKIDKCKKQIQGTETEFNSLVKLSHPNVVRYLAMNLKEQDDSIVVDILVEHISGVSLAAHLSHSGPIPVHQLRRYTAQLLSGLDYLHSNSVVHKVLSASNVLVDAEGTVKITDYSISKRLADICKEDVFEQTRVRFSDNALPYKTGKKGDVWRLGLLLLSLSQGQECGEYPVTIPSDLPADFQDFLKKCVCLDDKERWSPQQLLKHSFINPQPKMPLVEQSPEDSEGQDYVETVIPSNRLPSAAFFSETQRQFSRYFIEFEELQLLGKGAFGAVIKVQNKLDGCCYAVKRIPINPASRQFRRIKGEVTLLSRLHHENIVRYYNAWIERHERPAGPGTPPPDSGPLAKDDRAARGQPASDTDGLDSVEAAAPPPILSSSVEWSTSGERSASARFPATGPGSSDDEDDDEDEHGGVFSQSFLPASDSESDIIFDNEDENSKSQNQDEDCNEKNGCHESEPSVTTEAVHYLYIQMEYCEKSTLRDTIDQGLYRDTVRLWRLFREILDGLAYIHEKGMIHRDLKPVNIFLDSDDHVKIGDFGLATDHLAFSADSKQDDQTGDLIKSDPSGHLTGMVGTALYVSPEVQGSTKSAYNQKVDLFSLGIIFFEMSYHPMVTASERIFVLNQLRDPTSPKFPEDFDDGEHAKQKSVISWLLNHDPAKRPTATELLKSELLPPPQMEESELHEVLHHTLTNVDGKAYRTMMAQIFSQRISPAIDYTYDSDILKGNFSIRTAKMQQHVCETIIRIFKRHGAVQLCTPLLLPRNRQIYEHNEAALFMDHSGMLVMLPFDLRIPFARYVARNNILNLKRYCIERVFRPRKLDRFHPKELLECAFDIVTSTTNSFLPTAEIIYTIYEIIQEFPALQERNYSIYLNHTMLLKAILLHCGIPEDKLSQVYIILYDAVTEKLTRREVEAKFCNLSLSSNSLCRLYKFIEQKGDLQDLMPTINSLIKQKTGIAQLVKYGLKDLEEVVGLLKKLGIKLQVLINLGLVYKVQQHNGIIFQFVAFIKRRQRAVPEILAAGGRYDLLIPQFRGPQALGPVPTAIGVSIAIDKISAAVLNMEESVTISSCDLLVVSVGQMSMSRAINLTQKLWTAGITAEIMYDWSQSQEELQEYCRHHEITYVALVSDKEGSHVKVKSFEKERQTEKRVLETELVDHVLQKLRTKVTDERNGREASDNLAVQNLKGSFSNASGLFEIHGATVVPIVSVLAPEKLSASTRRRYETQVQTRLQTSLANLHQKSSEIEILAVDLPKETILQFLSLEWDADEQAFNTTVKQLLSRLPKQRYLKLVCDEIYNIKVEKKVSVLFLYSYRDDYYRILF

Worked examples, 10 compounds total:
| CHEMICAL_STRUCTURE | RESULT |
| --- | --- |
| Cc1cnc(Nc2cc(C)n(C)n2)nc1-c1c[nH]c2c(N3Cc4c(NC(=O)C5CCOCC5)cccc4C3=O)cccc12 | < 10 nM |
| Cc1cnc(Nc2cc(C)n(C)n2)nc1C1=CCc2c1ccc(N(C)C)c2NC(=O)CN1CC[C@H](Oc2ccnc(NCC(F)(F)F)n2)C1 | < 10 nM |
| Cc1ncc(Br)c(O[C@H]2CCN(CC(=O)Nc3cccc4c(-c5nc(Nc6cc(C)n(C)n6)ncc5C)c[nH]c34)C2)n1 | 10 to 100 nM |
| Cc1cnc(Nc2cc(C)n(C)n2)nc1-c1c[nH]c2c(N3Cc4cccc(F)c4C3=O)cccc12 | < 10 nM |
| Cc1cnc(Nc2cc(C)n(C)n2)nc1-c1c[nH]c2c(N3Cc4ccc([N+](=O)[O-])cc4C3=O)cccc12 | < 10 nM |
| Cc1cnc(Nc2cc(C)n(C)n2)nc1-c1c[nH]c2c(N3Cc4c(cccc4C4=CCN(C(N)=O)CC4)C3=O)cccc12 | < 10 nM |
| Cc1cnc(Nc2cc(C)n(C)n2)nc1-c1c[nH]c2c(NC(=O)CN3CC[C@H](Oc4cc(NC5CC5)ncn4)C3)cccc12 | < 10 nM |
| Cc1cnc(Nc2cc(C)n(C)n2)nc1-c1c[nH]c2c(N3Cc4c(cccc4-c4ccc5c(cnn5C)c4)C3=O)cccc12 | 10 to 100 nM |
| Cc1cnc(Nc2cc(C)n(C)n2)nc1-c1c[nH]c2c(N3Cc4c(cccc4-c4cccc5[nH]ncc45)C3=O)cccc12 | < 10 nM |
| Cc1cnc(Nc2cc(C)n(C)n2)nc1-c1c[nH]c2c(N3Cc4c(/C=C/C(=O)NN)cccc4C3=O)cccc12 | < 10 nM |

Exercise: What value of IC50 on UniProt Q9P2K8 does `Cc1cnc(Nc2cc(C)n(C)n2)nc1-c1c[nH]c2c(NC(=O)CN3CC[C@H](Oc4ccnc(NC5CC5)n4)C3)cccc12` have?
Key: < 10 nM

Exercise: Which IC50 is reported with UniProt Q9P2K8 for this entry: `COc1cnc(Nc2cc(C)n(C)n2)nc1-c1c[nH]c2c(NC(=O)CN3CC[C@H](Oc4cnnc(NC5CC5)n4)C3)cccc12` ?
Key: < 10 nM

Exercise: Give the reported IC50 for `Cc1cnc(Nc2cc(C)n(C)n2)nc1-c1c[nH]c2c(N3Cc4c(cccc4-c4ccccc4CO)C3=O)cccc12` (system: UniProt Q9P2K8).
Key: < 10 nM

Exercise: Value wanted: IC50 (UniProt Q9P2K8) of entry `Cc1cnc(Nc2cc(C)n(C)n2)nc1-c1c[nH]c2c(NC(=O)CN3CC[C@H](Oc4nc(Cl)ncc4N)C3)cccc12`
Key: 10 to 100 nM
